The measured values listed here are drawn from PubChem BioAssay (NCI).

Please go through the items and note down their TGI.
System: COLO 205 colon
Experiment: NCI tumour cell line growth inhibition, 48 h

Return TGI for the following compound: CC(=O)OC1COC(n2c(O)c(N=NC(N)=S)c3cc(Br)ccc32)C(OC(C)=O)C1OC(C)=O (configuration not stated) > 100 µM

Return TGI for the following compound: "O=[N+]([O-])c1cc(C(F)(F)F)cc([N+](=O)[O-])c1CCl" 4.14 µM

Return TGI for the following compound: "COc1cc([N+](=O)[O-])c(OC)cc1-c1nc2sc(Cl)cn2c1/C(N)=N/C(=N)N" 6.67 µM

Return TGI for the following compound: "NN(CC(=O)O)CC(=O)O" > 100 µM

Return TGI for the following compound: "N#Cc1c(N)nc(-c2ccc(Cl)cc2)c2c1-c1ccccc1S(=O)(=O)CC2" > 100 µM

Return TGI for the following compound: "COc1ccc(C(=O)c2cc(OC)c(OC)c(OC)c2)cc1OC(=O)CCl" 15.6 µM

Return TGI for the following compound: "CN(C)CCCSc1nc2ccccc2[nH]1" > 100 µM

Return TGI for the following compound: "CS(=O)(=O)c1nc(-c2cc3c(c(S(C)(=O)=O)n2)CCC3)cc2c1CCCCC2" > 100 µM

Return TGI for the following compound: "CCSc1[nH]c(NC(=S)NC(=O)c2ccccc2Cl)c(C(N)=O)c1C(N)=O" > 10 µM

Return TGI for the following compound: "COC1=C(OC)C(=O)C(Cc2c(Cl)nc3sc(C)cn23)=C(C)C1=O" 34.7 µM

Return TGI for the following compound: "COc1cnc2c(c1)C(=O)c1c-2n(CCCn2ccnc2)c(=O)c2cc(F)ccc12" 0.297 µM

Return TGI for the following compound: "O=[N+]([O-])O.[Cu+2].[NH-]CC[NH-].[NH-]CC[NH-]" > 10 µM

Return TGI for the following compound: C/C(=N\NS(=O)(=O)c1ccc(C)cc1)C(CN1CCCCC1)C(c1ccccc1)c1c(O)c2ccccc2oc1=O (configuration not stated) > 100 µM

Return TGI for the following compound: "Clc1ccc(NCc2nnc(CCCCCCCCc3nnc(CNc4ccc(Cl)cc4)o3)o2)cc1" > 100 µM

Return TGI for the following compound: "Cc1nn2c(/C=C3\C(=O)Nc4ccc(Cl)cc43)c(C)nc2s1" > 100 µM

Return TGI for the following compound: "CCOC(CN(C)C(=O)Nc1cccc2ccccc12)OCC" > 10 µM

Return TGI for the following compound: "CNS(=O)(=O)NN(C)S(=O)(=O)c1ccccc1" > 100 µM

Return TGI for the following compound: "COC(=O)c1nc(-c2ccccc2)oc1S(=O)(=O)Cc1ccccc1" 3.66 µM

Return TGI for the following compound: CC(C)C1CC[C@@H](C)C[C@@]1(O)CC(N)=O (some centres not stated) > 100 µM

Return TGI for the following compound: "CN1CCc2[nH]c3ccccc3c2C1" > 100 µM

Return TGI for the following compound: CCCCCCCCCCCCCCCCCCNC(=O)C(N)Cc1ccc(OCc2ccccc2)cn1 (configuration not stated) 28.8 µM

Return TGI for the following compound: "O=C(Nc1ccc(Cl)cc1)NS(=O)(=O)c1coc2cc(F)ccc2c1=O" > 100 µM
